- TEST_TARGET: LmxCLK1 (Leishmania mexicana)
- PROCEDURE_TEXT: HTRF (TR-FRET) enzymatic inhibition assay
- Format: biochemical
- MEASUREMENT_PARAMETERS: pre-incubation 15 min; read-out: Time-dependent IC50
REPORTED_METRIC: pIC50
When answering, recall that pIC50 equals minus log10 of the concentration in mol/L, and write that number alone.

Look up and state reported pIC50 for C=CC(=O)Nc1cccc(Sc2nc(Nc3ccc(N4CCN(C)CC4)cc3)ncc2Cl)c1 [WZ8040]
6.06

* * *

As shown below, each of these compounds has a reported ΔTm at 10 µM value.
- TEST_TARGET: UniProt:E9AMP2
- Sequence (E9AMP2 1-422): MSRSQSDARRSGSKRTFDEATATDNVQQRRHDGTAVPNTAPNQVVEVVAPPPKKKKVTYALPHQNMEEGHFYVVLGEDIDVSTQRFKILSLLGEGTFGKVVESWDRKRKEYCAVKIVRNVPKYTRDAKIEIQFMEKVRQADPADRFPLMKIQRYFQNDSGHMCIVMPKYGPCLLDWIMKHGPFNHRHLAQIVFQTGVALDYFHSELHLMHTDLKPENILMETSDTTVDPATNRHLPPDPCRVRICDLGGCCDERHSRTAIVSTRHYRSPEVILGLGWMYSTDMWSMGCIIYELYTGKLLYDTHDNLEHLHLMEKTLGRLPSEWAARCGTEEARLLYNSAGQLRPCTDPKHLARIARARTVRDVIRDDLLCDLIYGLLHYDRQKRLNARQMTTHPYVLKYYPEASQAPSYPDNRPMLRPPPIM
- PROCEDURE_TEXT: biochemical
- Format: binding
- MEASUREMENT_PARAMETERS: DSF, 10 µM compound, 2 µM LmxCLK1, mean of two runs; read-out: ΔTm Average
Answer with a number only, understood to be in °C.

// below: answered compounds
>  <STRUCTURE_SMILES>
N#CCNC(=O)c1ccc(-c2ccnc(Nc3ccc(N4CCOCC4)cc3)n2)cc1

>  <NUMBER>
0

$$$$
>  <STRUCTURE_SMILES>
C=CCc1ccc(O)c(-c2ccc(O)c(CC=C)c2)c1

>  <NUMBER>
0

$$$$

Look up and state reported ΔTm at 10 µM for Cc1[nH]c(/C=C2\C(=O)Nc3ccc(S(=O)(=O)Cc4c(Cl)cccc4Cl)cc32)c(C)c1C(=O)N1CCC[C@@H]1CN1CCCC1
0.1

Look up and state reported ΔTm at 10 µM for CCn1c(-c2nonc2N)nc2c(C#CC(C)(C)O)ncc(OC[C@H]3CCCNC3)c21
-0.1

Look up and state reported ΔTm at 10 µM for CNC(=O)c1cccc(-c2ccc3c(N4CCOC[C@@H]4C)nc(N4CCOC[C@@H]4C)nc3n2)c1
0

Look up and state reported ΔTm at 10 µM for COc1ccc(-c2nc(N3CCOCC3)c3sc(CN(C)c4ncc(C(=O)NO)cn4)cc3n2)cn1
0

Look up and state reported ΔTm at 10 µM for NC(=O)c1ncn([C@@H]2O[C@H](CO)[C@@H](O)[C@H]2O)c1N
-0.2

Look up and state reported ΔTm at 10 µM for CO[C@@H](C(=O)N1Cc2n[nH]c(NC(=O)c3ccc(N4CCN(C)CC4)cc3)c2C1)c1ccccc1
0.2

* * *

- TEST_TARGET: LmxCLK1 (Leishmania mexicana)
- PROCEDURE_TEXT: biochemical
- Assay type: binding
- MEASUREMENT_PARAMETERS: DSF, 10 µM compound, 2 µM LmxCLK1, mean of two runs; read-out: ΔTm Average
REPORTED_METRIC: ΔTm at 10 µM (°C)
Answer with a number only, understood to be in °C.

// below: answered compounds
>  <STRUCTURE_SMILES>
COCCNCc1ccc(-c2cc3nccc(Oc4ccc(NC(=S)NC(=O)Cc5ccc(F)cc5)cc4F)c3s2)nc1

>  <TEST_TARGET>
LmxCLK1 (Leishmania mexicana)

>  <ΔTm at 10 µM (°C)>
-0.1

$$$$
>  <STRUCTURE_SMILES>
Cc1ccc(Nc2nccc(N(C)c3ccc4c(C)n(C)nc4c3)n2)cc1S(N)(=O)=O

>  <TEST_TARGET>
LmxCLK1 (Leishmania mexicana)

>  <ΔTm at 10 µM (°C)>
-0.2

$$$$

Look up and state reported ΔTm at 10 µM for Cc1cc([C@@H](C)Nc2ccccc2C(=O)O)c2nc(N3CCOCC3)cc(=O)n2c1
0

Look up and state reported ΔTm at 10 µM for O=C(O)c1ccc(Nc2ncc3c(n2)-c2ccc(Cl)cc2C(c2c(F)cccc2F)=NC3)cc1
0.2

* * *

- TEST_TARGET: LmxCLK1 (Leishmania mexicana, UniProt E9AMP2)
- Sequence (E9AMP2 1-422): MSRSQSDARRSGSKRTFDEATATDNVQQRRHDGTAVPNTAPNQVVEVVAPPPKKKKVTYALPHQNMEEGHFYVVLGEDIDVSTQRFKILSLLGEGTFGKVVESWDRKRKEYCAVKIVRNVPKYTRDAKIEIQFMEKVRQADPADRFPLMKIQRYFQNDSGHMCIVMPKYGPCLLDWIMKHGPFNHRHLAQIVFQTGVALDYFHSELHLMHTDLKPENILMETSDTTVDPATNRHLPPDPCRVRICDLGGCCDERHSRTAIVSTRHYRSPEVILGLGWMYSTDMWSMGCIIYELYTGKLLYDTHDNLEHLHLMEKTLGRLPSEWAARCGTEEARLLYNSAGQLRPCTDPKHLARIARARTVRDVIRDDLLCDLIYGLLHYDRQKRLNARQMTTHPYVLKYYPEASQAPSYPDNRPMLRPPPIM
- PROCEDURE_TEXT: HTRF (TR-FRET) enzymatic inhibition assay
- Type: biochemical
- MEASUREMENT_PARAMETERS: pre-incubation 0 min; read-out: Time-dependent IC50
- Method: The enzymatic activity of full-length LmxCLK1 was monitored using a homogenous time-resolved fluorescence (HTRF)-based assay (HTRF KinEASE-STK S3 kit, Cisbio - catalog #62ST3PEC). […] assays at 0.5 mg/mL and 0.7 mg/mL, respectively, measured by UV absorbance with a NanoDrop […] spectrophotometer (Thermo Scientific), using the calculated molecular weight and estimated extinction […] Purified proteins were further analyzed by LC-ESI-MS in a XEVO G2 Sx Q-ToF (Waters). […]
REPORTED_METRIC: pIC50
When answering, recall that pIC50 equals minus log10 of the concentration in mol/L, and write that number alone.

Look up and state reported pIC50 for C=CC(=O)Nc1cccc(Sc2nc(Nc3ccc(N4CCN(C)CC4)cc3)ncc2Cl)c1
5.78

* * *

- TEST_TARGET: UniProtKB E9AMP2
- PROCEDURE_TEXT: cell-based
- Format: cell-based
- MEASUREMENT_PARAMETERS: 10 µM compound, tracer SV366, promastigotes
- Description: All compounds were tested at a fixed concentration of 10 µM to enable direct comparison of their target occupancy in live cells. Serially diluted probes (5 µL) were added to 85 µL of cells in culture media or 85 µL of purified protein. […] Light emissions at 460+10 nm (BRET donor) and at 610+20 nm (BRET acceptor) were sequentially recorded (integration time = 0.5 s, gain = 3600) using a luminometer (BMG LABTECH Clariostar or Biotek Synergy HT). […]
As shown below, each of these compounds has a reported Target occupancy Run 2 value.
Put down the number, then write its unit next to it.

// below: answered compounds
>  <COMPOUND>
N[C@@H]1CCCN(c2c(/C=C3\SC(=O)NC3=O)cccc2-c2ccccc2)C1 [AZD1208]

>  <Target occupancy Run 2>
-7.9%

$$$$
>  <COMPOUND>
N#C/C(=C/c1ccc(O)c(O)c1)C(=O)NCc1ccccc1 [AG-490 (Tyrphostin B42)]

>  <Target occupancy Run 2>
-10.6%

$$$$
>  <COMPOUND>
C[C@H](Nc1ncnc2nc[nH]c12)c1cc2cccc(Cl)c2c(=O)n1-c1ccccc1 [IPI-145 (INK1197)]

>  <Target occupancy Run 2>
0.6%

$$$$
>  <COMPOUND>
COc1ccc2c(c1)c(C1=C(c3c[nH]c4ccccc34)C(=O)NC1=O)cn2CCCN(C)C [Go 6983]

>  <Target occupancy Run 2>
-14.1%

$$$$
>  <COMPOUND>
Cc1ccc(NC(=O)c2cccc(N(C)C)c2)cc1NC(=O)c1ccc(O)cc1 [ZM 336372]

>  <Target occupancy Run 2>
-6.5%

$$$$
>  <COMPOUND>
COc1cc(N2CCC(N)CC2)ccc1Nc1ncc(Cl)c(-c2c[nH]c3ccccc23)n1 [AZD3463]

>  <Target occupancy Run 2>
-12.9%

$$$$
>  <COMPOUND>
C=CC(=O)Nc1cccc(Nc2nc(Nc3ccc(Oc4ccnc(C(=O)NC)c4)cc3)ncc2F)c1 [CNX-774]

>  <Target occupancy Run 2>
-9.3%

$$$$

Look up and state reported Target occupancy Run 2 for C=CS(=O)(=O)NC1CCN(C(=O)CNc2cc(I)c(Cl)cc2OC)CC1 [K-Ras(G12C) inhibitor 9]
-10.0%
